System: M14
Assay: NCI tumour cell line growth inhibition, 48 h
Active and inactive are the calls of the source. Cut-off read from the data, not from the text of the source: active = GI50 up to about 1.1 µM and inactive = higher.
measured-attribute: GI50

So, `O=c1c(Cc2ccccc2)c(-c2ccccc2)[nH]n1C1=NCCN1` ? Its GI50 was 25.3 µM (inactive)

So, Cc1cc(=O)oc2c(CNC(C)C(=O)O)c(O)ccc12 (stereo unspecified) ? Its GI50 was > 100 µM (inactive)

So, Cc1[nH]c2ccccc2c1C(=O)CC1(O)C(=O)Nc2c(Cl)cc(Cl)cc21 (stereo unspecified) ? Its GI50 was 21.5 µM (inactive)

So, `Cc1nccn1S(=O)(=O)c1ccc(Cl)cc1` ? Its GI50 was 41.7 µM (inactive)

So, `Cc1cccc(C)c1NC(=O)/C(Cc1nc2ccc([N+](=O)[O-])cc2nc1O)=N\NC(N)=O` ? Its GI50 was > 100 µM (inactive)

So, `O=[N+]([O-])c1ccc2nnnn2c1` ? Its GI50 was 13.8 µM (inactive)

---

Provide the reported GI50 of each item.
Test system: SR
Assay: NCI tumour cell line growth inhibition, 48 h
Activity calls are given as the source filed them. Cut-off read from the data, not from the text of the source: active = GI50 up to about 1.1 µM and inactive = higher.

Lab entry: SR assay, compound O=[N+]([O-])c1ccc(Cl)c(CNc2ncnc3c2ncn3C2CCCCO2)c1 (stereo not given) , GI50 = 18.5 µM (inactive)

Lab entry: SR assay, compound COc1cc2ccc1-c1cc(ccc1O)CC1c3cc4c(cc3CCN1C)Oc1c(OC)cc3c(c1O4)C(C2)N(C)CC3 (stereo not given) , GI50 = 1.85 µM (inactive)

Lab entry: SR assay, compound `Cc1n[nH]c(=O)c2c3c([nH]c12)-c1ccccc1C3` , GI50 = 82.8 µM (inactive)

Lab entry: SR assay, compound N#Cc1cnn2ccn(C3OC(COC(=O)c4ccccc4)C(OC(=O)c4ccccc4)C3OC(=O)c3ccccc3)c12 (stereo not given) , GI50 = > 31.6 µM (inactive)

Lab entry: SR assay, compound `O=C1C2=C(N[C@@H](c3ccccc3)[C@H](c3ccccc3)N2)C(=O)c2ccccc21` , GI50 = > 100 µM (inactive)

---

Provide the reported GI50 of each item.
Test system: HCT-116
Experiment: NCI tumour cell line growth inhibition, 48 h
The source made the active and inactive calls. Rule as the data show it: active = GI50 up to about 1.1 µM and inactive = higher.

So, CC(CO)(CBr)COC(=O)c1cc(Br)c(N)c(Br)c1 (stereo unspecified) ? Its GI50 was 94 µM (inactive)

So, `CCOC(=O)Cn1c(=O)[nH]c(=O)c2c1ncn2Cc1ccccc1` ? Its GI50 was > 100 µM (inactive)

So, `Cc1nccn1S(=O)(=O)c1ccc(Cl)cc1` ? Its GI50 was 30.5 µM (inactive)

So, Cc1cn(C2CC(Br)C(COC(c3ccccc3)(c3ccccc3)c3ccccc3)O2)c(=O)[nH]c1=O (stereo unspecified) ? Its GI50 was 8.2 µM (inactive)

So, `COc1cc(OC)nc(-n2c(N)c(C#N)c3ccc([N+](=O)[O-])cc3c2=O)n1` ? Its GI50 was > 100 µM (inactive)

So, `Cc1nc2c(=O)n(-c3ccccc3)c(=O)n(-c3ccccc3)c2o1` ? Its GI50 was > 100 µM (inactive)

So, O=C1CC(c2ccsc2)n2cccc21 (stereo unspecified) ? Its GI50 was > 100 µM (inactive)

So, `CC(=O)N(C(C)=O)c1cc2c3c(c1)CCCN3CCC2` ? Its GI50 was > 10 µM (inactive)

So, `Cc1nc2c(o1)C(=O)c1ccccc1/C2=N\c1ccccc1` ? Its GI50 was 2.17 µM (inactive)

So, `Cc1cc(NS(=O)(=O)c2ccc(NC(=O)c3cccc4c(NNc5ccc(S(N)(=O)=O)cc5)c5ccccc5nc34)cc2)no1` ? Its GI50 was 33.2 µM (inactive)

So, `O=C1C(c2ccccc2)=[N+]([O-])c2cc([N+](=O)[O-])ccc21` ? Its GI50 was 23.8 µM (inactive)
